Origin of values: patent US9789096B2

system: H2122; experiment: Cell viability dose-response, H2122; assay type: cell-based, human; settings: Homo sapiens, NCI-H2122, Table 8; 12-point dose-response starting at 50 micromolar
For each record, check the reported AC50: if it is below 200 nM write satisfied, else write not satisfied.

Illustrative cases are given below, each with its answer.
query: # check: AC50 < 200 nM for O=c1c(Cc2ccsc2)coc2cc(OCc3cnn(-c4ccccc4)c3)ccc12 [SW209379-1]
result: satisfied

query: # check: AC50 < 200 nM for O=c1c(-c2ccccc2)coc2cc(OCc3cnn(-c4ccccc4)c3)ccc12 [SW 208631-1]
result: not satisfied

query: # check: AC50 < 200 nM for O=c1c(Cc2ccc(F)cc2)coc2cc(OCc3cnn(-c4ccccc4)c3)ccc12 [SW209188-1]
result: satisfied

Next:
query: # check: AC50 < 200 nM for O=c1c(-c2cc(C(F)(F)F)cc(C(F)(F)F)c2)coc2cc(OCc3cnn(-c4ccccc4)c3)ccc12 [SW208763-1]
result: satisfied
